Origin of the recorded values: the NIST ThermoML archive (doi:10.1021/je301353z)

Details: 298.15 K; 101.33 kPa; Liquid; Vibrating tube method
endpoint.label: mass density (kg/m3)
Return type: number; implicit unit kg/m3.

-- ask Report measured mass density; entry is CCn1cc[n+](C)c1.F[B-](F)(F)F [1-ethyl-3-methylimidazolium tetrafluoroborate]
-- reply 1279.91

-- ask Report measured mass density; entry is CN1CCCC1=O
-- reply 1028.23

-- ask Report measured mass density; entry is O=C1CCCN1
-- reply 1107.15

-- ask Report measured mass density; entry is c1ccncc1
-- reply 978.252

* * *

What mass density was measured for each of the following?
Conditions: 303.15 K; 101.33 kPa; Liquid; Vibrating tube method
Return type: number; implicit unit kg/m3.

-- ask Report measured mass density; entry is c1ccncc1
-- reply 973.228

-- ask Report measured mass density; entry is CN1CCCC1=O
-- reply 1023.46

-- ask Report measured mass density; entry is CCn1cc[n+](C)c1.F[B-](F)(F)F [1-ethyl-3-methylimidazolium tetrafluoroborate]
-- reply 1276.26

-- ask Report measured mass density; entry is O=C1CCCN1
-- reply 1103.02
